Taken from paper PMC7356390.

experiment: In vivo pharmacokinetics and tissue distribution (HPLC); set-up: species or system male BALB/c mice; conditions: male, BALB/c, mouse, kidney, intraperitoneal, 100 mg/kg body weight; 60 min after 100 mg/kg i.p., mean ± S.E.; read-out: tissue concentration, Kidneys
ATTRIBUTE MEASURED: concentration at 60 min (ng/g)
Please state the figure in ng/g; there is no need to write the unit.

> print(dat)
                         compound       attribute.measured  readout.units  number
1  COc1cc(/C=C/C(C)=O)ccc1O [DZG]  concentration at 60 min           ng/g    9750

# next compound below
concentration at 60 min reading for COc1cc(/C=C/C(=O)CC(=O)/C=C/c2ccc(O)c(OC)c2)ccc1O [Cur, Curcumin] : 530
